# Tested on: hLTBP1-/hLTBP3-proTGFβ1 vs hGARP-/hLRRC33-proTGFβ1 complexes
# methodNotes: Solution equilibrium titration: relative affinity (bias) LTBP complexes vs cell-associated complexes
# Format: binding, human
# appliedConditions: MSD-SET, ratio of average KD cell-associated / matrix-associated
# Source text: Context-biased: As used herein, “context-biased antibodies” refer to a type of conformational antibodies that binds an antigen with differential affinities when the antigen is associated with (i.e., bound to or attached to) an interacting protein or a fragment thereof. Thus, a context-biased antibody that specifically binds an epitope within proTGFβ1 may bind LTBP1-proTGFβ1, LTBP3-proTGFβ1, GARP-proTGFβ1 and LRRC33-proTGFβ1 with different affinities. […]
observedProperty: (H) G/D (fold bias) (fold)
Answer format: numeric, fold implied, no suffix.

[
  {
    "molecule": "Ab29: monoclonal antibody; VH SEQ ID NO: 137, VL SEQ ID NO: 15 (antibody, V domains shown) VH: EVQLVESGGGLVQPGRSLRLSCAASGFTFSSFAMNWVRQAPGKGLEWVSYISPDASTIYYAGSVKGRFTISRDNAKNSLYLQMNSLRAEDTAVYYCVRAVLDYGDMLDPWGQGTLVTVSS VL: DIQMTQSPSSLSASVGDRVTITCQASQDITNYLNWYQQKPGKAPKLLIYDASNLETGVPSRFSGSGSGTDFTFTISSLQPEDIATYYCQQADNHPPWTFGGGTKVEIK",
    "(H) G/D (fold bias) [fold]": 2.00
  }
]

// next item, (H) G/D (fold bias) requested
get_value(item= Ab33: monoclonal antibody; VH SEQ ID NO: 141, VL SEQ ID NO: 15 (antibody, V domains shown) VH: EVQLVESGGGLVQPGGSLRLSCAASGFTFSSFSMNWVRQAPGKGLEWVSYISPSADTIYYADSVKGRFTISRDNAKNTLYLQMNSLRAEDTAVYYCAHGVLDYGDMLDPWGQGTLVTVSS VL: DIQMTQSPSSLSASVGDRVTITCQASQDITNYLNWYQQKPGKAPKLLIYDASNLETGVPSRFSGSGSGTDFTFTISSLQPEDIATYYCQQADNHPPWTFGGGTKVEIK , readout=(H) G/D (fold bias)) returns 3.00
